- system.tested: RIPK1 (Homo sapiens, UniProt Q13546)
- Construct: recombinant GST-RIPK1 kinase domain (residues 1-327) enzyme produced from baculovirus-transfected Sf21 cells
- Sequence (Q13546 1-327): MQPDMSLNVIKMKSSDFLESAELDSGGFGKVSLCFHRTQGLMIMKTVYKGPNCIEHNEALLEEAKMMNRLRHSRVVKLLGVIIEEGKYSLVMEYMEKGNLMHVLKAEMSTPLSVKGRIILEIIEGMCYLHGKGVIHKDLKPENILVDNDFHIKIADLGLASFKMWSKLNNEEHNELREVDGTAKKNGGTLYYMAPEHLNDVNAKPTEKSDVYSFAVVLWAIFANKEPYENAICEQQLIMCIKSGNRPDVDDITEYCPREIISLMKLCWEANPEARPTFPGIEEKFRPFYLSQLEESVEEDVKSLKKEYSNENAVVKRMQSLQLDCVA
- measurement.description: RIPK1-ADP-Glo enzymatic assay
- condition.context: ADP-Glo luminescent ADP detection; 25 nM GST-RIPK1 kinase domain (residues 1-327), 300 μM ATP, dephosphorylated-MBP substrate; 30 min pre-incubation, 150 min reaction
Structures can show the parent of a compound that is named as a salt.
recorded.metric: log10 of EC50 (log10 of the value in µM)
Hello, just confirming the data are log10 of EC50 with units of µM.

**Query** Recorded log10 of EC50 for "Cc1ncc([C@@H]2CC=NN2C(=O)N2CC(C)(Oc3ccc(F)cc3)C2)cc1F" , please?
**Result** -1.85

**Query** Next record, please: "O=C(N1CC(O)(C(F)(F)F)C1)N1N=CC[C@H]1c1cc(F)cc(F)c1"
**Result** -0.01

**Query** Next record, please: "CCC1(Oc2ccccc2)CN(C(=O)N2N=CC[C@H]2c2cc(F)cc(F)c2)C1"
**Result** -1.24

**Query** Next record, please: "O=C(N1CCC1)N1N=CC[C@H]1c1cc(F)cc(F)c1"
**Result** -1.19

**Query** Next record, please: "CCOc1cccc(CC2CN(C(=O)N3N=CC[C@H]3c3cc(F)cc(F)c3)C2)c1"
**Result** -1.77

**Query** Next record, please: COC(=O)C1CC12CN(C(=O)N1N=CC[C@H]1c1cc(F)cc(F)c1)C2 (mixture of isomers)
**Result** -0.71

**Query** Next record, please: "CC(C)OC1CN(C(=O)N2N=CC[C@H]2c2cc(F)cc(F)c2)C1"
**Result** -1.52

**Query** Next record, please: "COC1(C)CN(C(=O)N2N=CC[C@H]2c2ccc(Cl)cc2)C1"
**Result** -1.19

**Query** Next record, please: "O=C(N1CC(Nc2ccccc2)C1)N1N=CC[C@H]1c1cc(F)cc(F)c1"
**Result** -2.17

**Query** Next record, please: "C[C@H]1[C@@H](Oc2ccnc(C#N)c2)CN1C(=O)N1N=CC[C@H]1c1cc(F)cc(F)c1"
**Result** -1.69

**Query** Next record, please: Cc1nc(OC2CN(C(=O)N3N=CC[C@H]3c3cc(F)cc(F)c3)C2)cc(C(C)(C)O)n1 [Example 3.7, TFA salt]
**Result** 0.17

**Query** Next record, please: O=C(N1CCC1Cc1ccccc1)N1N=CC[C@H]1c1cc(F)cc(F)c1 (mixture of isomers)
**Result** -1.13

**Query** Next record, please: "O=C(N1CC(C(F)F)C1)N1N=CC[C@H]1c1cc(F)cc(F)c1"
**Result** -1.65

**Query** Next record, please: Cc1ncc([C@@H]2CC=NN2C(=O)N2CC(Oc3ccc(F)cc3)C2)cc1F (single isomer, unassigned)
**Result** -1.83

**Query** Next record, please: "O=C(N1CC(S(=O)(=O)c2ccc(Br)cc2)C1)N1N=CC[C@H]1c1cc(F)cc(F)c1"
**Result** -1.91

**Query** Next record, please: "C[C@H]1[C@@H](Oc2ccc(F)cc2)CN1C(=O)N1N=CC[C@H]1c1cc(F)cc(F)c1"
**Result** -2.17

**Query** Next record, please: "CC1(O)CN(C(=O)N2N=CC[C@H]2c2cc(F)cc(F)c2)C1"
**Result** 0.56

* * *

Could you please report measured pEC50 for the items listed next?
- system.tested: RIPK1 (Homo sapiens, UniProt Q13546)
- Construct: recombinant GST-RIPK1 kinase domain (residues 1-327) enzyme produced from baculovirus-transfected Sf21 cells
- measurement.description: RIPK1-ADP-Glo enzymatic assay
- condition.context: ADP-Glo luminescent ADP detection; 25 nM GST-RIPK1 kinase domain (residues 1-327), 300 μM ATP, dephosphorylated-MBP substrate; 30 min pre-incubation, 150 min reaction
Counter-ions that a name gives are not always drawn.
Quick note: pEC50 values are minus log10 of concentrations in mol/L.

**Query** Recorded pEC50 for O=C(N1CC(Oc2ccccc2)C1)N1N=CC[C@@H]1c1cc(F)cc(F)c1 [Example 1.4, TFA salt] , please?
**Result** 6.22

**Query** Next record, please: O=C(N1CC(Cc2ccccc2)C1)N1N=CC[C@H]1c1ccc(Cl)cc1 [Example 2.10]
**Result** 7.94

**Query** Next record, please: C[C@@H]1[C@@H](Oc2ccccc2)CN1C(=O)N1N=CC[C@H]1c1cc(F)cc(F)c1 (single isomer, unassigned) [Example 1.10, TFA salt]
**Result** 7.98

**Query** Next record, please: O=C(N1CC(c2ccccc2)C1)N1N=CC[C@H]1c1cc(F)cc(F)c1 [Example 1.41]
**Result** 8.18

* * *

- system.tested: RIPK1 (Homo sapiens)
- Construct: recombinant GST-RIPK1 kinase domain (residues 1-327) enzyme produced from baculovirus-transfected Sf21 cells
- measurement.description: RIPK1-ADP-Glo enzymatic assay
- condition.context: ADP-Glo luminescent ADP detection; 25 nM GST-RIPK1 kinase domain (residues 1-327), 300 μM ATP, dephosphorylated-MBP substrate; 30 min pre-incubation, 150 min reaction
pEC50: −log10 of the molar value. Where a name gives a salt, the structure may show the parent alone.
Classify as follows. Reported pEC50 greater than or equal to 7: 1. Reported pEC50 below: 0.

**Query** Threshold query (pEC50 >= 7) on O=C(N1CC(Cc2ccccc2)C1)N1N=CC[C@H]1c1cc(F)cc(F)c1 [Example 1.14, TFA salt]
**Result** 1

**Query** Next record, please: "C[C@H]1[C@@H](Oc2ccc(F)cc2)CN1C(=O)N1N=CC[C@H]1c1cncc(C#N)c1"
**Result** 1

**Query** Next record, please: "C[C@@H]1[C@H](Oc2ccc(F)cc2)CN1C(=O)N1N=CC[C@H]1c1cc(F)cc(F)c1"
**Result** 1

**Query** Next record, please: "COC1(C(F)(F)F)CN(C(=O)N2N=CC[C@H]2c2cc(F)cc(F)c2)C1"
**Result** 0

**Query** Next record, please: C[C@@H]1[C@H](Oc2ccccc2)CN1C(=O)N1N=CC[C@H]1c1cc(F)cc(F)c1 (single isomer, unassigned) [Example 1.12, TFA salt]
**Result** 1

**Query** Next record, please: Cc1csc(OC2CN(C(=O)N3N=CC[C@H]3c3cc(F)cc(F)c3)C2)n1 [Example 3.5, TFA salt]
**Result** 1

**Query** Next record, please: "CC1(Oc2ccc(F)cc2)CN(C(=O)N2N=CC[C@H]2c2ccc(Cl)cc2)C1"
**Result** 1

**Query** Next record, please: "CC(C)C1(O)CN(C(=O)N2N=CC[C@H]2c2cc(F)cc(F)c2)C1"
**Result** 0

**Query** Next record, please: "CCOC1CN(C(=O)N2N=CC[C@H]2c2cc(F)cc(F)c2)C1"
**Result** 1

**Query** Next record, please: O=C(N1CC(Oc2cccnc2)C1)N1N=CC[C@H]1c1cc(F)cc(F)c1 [Example 1.7, TFA salt]
**Result** 1

**Query** Next record, please: CC(c1ccccc1)C1CN(C(=O)N2N=CC[C@H]2c2cc(F)cc(F)c2)C1 (single isomer, unassigned) [Example 2.42]
**Result** 1

**Query** Next record, please: "O=C(N1CC(c2ncccn2)C1)N1N=CC[C@H]1c1cc(F)cc(F)c1"
**Result** 0

* * *

Could you please report measured pEC50 for the items listed next?
- system.tested: RIPK1 (Homo sapiens, UniProt Q13546)
- Construct: recombinant GST-RIPK1 kinase domain (residues 1-327) enzyme produced from baculovirus-transfected Sf21 cells
- measurement.description: RIPK1-ADP-Glo enzymatic assay
- condition.context: ADP-Glo luminescent ADP detection; 25 nM GST-RIPK1 kinase domain (residues 1-327), 300 μM ATP, dephosphorylated-MBP substrate; 30 min pre-incubation, 150 min reaction
- Method: RIPK1-ADP-Glo Enzymatic Assay The enzymatic activity of RIPK1 is measured using an assay derived from ADP-Glo kit (Promega™), which provides a luminescent-based ADP detection system. Specifically, the ADP generated by RIPK1 kinase is proportionally detected as luminescent signals in a homogenous fashion. In this context, the assessment of the inhibitory effect of small molecules (EC50) is measured by the effectiveness of the compounds to inhibit the ATP to ADP conversion by RIPK1. […]
Structures can show the parent of a compound that is named as a salt.
Quick note: pEC50 values are minus log10 of concentrations in mol/L.

**Query** Recorded pEC50 for CC1(C#N)CN(C(=O)N2N=CC[C@H]2c2cc(F)cc(F)c2)C1 [Example 1.36] , please?
**Result** 7.21

**Query** Next record, please: C[C@@H]1[C@H](Oc2ccnc(C#N)c2)CN1C(=O)N1N=CC[C@H]1c1cc(F)cc(F)c1 [Example 2.38]
**Result** 7.07

**Query** Next record, please: C[C@H]1[C@H](Oc2ccccc2)CN1C(=O)N1N=CC[C@H]1c1cc(F)cc(F)c1 (single isomer, unassigned) [Example 1.9, TFA salt]
**Result** 6.98
